These measurements were taken from the supplement of paper PMC3545927.

Measured furin cleavage Z-score values are reported for all entries that follow.
# experimental-system: furin, P09958;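 further: purified furin at 1:10 enzyme:substrate in 50 mM HEPES pH 7.5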
# Sequence (P09958 whole entry): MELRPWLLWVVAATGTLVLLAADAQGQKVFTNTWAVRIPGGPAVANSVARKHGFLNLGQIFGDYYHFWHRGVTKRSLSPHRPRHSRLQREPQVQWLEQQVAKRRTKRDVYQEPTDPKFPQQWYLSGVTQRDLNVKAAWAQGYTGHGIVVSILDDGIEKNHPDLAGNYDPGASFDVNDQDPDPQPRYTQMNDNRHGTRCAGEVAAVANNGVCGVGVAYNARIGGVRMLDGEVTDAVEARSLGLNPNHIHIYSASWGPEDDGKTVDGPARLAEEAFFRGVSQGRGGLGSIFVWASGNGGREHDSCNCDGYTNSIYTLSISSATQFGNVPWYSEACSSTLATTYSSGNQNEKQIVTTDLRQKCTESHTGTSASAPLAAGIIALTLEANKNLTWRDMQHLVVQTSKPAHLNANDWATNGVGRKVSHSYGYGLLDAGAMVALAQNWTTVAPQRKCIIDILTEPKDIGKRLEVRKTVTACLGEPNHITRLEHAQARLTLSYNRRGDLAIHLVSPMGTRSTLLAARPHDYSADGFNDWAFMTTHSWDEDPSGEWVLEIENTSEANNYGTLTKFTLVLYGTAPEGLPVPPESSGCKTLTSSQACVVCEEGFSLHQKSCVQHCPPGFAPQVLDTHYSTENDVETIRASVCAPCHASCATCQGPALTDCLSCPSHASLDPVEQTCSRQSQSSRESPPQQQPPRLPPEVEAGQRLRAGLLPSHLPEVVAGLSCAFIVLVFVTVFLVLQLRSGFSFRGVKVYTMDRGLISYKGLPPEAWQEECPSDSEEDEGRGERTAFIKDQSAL
# experimental-protocol: furin cleavage Z-score vs untreated control; higher = more cleavage, active = 3.5 or more, inactive = 1 or less, 8 variable residues between constant flanks
# condition-summary: 7.5 min
This is one part of the list. The true hit rate is not given.

- seq-string: "CAAKQRPPRSAGNASASA [FS-1301]"
  furin cleavage Z-score: "8.85 (active)"
- seq-string: "CASTPCSKHLAGNASASA [HC2534]"
  furin cleavage Z-score: 1
- seq-string: "CAQGGRPPRPAGNASASA [FS-1055]"
  furin cleavage Z-score: "-0.328 (inactive)"
- seq-string: "CAGAAKAAAGAGNASASA [NG6]"
  furin cleavage Z-score: "-1.87 (inactive)"
- seq-string: "CAKTSERSQPAGNASASA [HC186]"
  furin cleavage Z-score: 2.56
- seq-string: "CAADHRFYRYAGNASASA [FS-1507]"
  furin cleavage Z-score: "-0.685 (inactive)"
- seq-string: "CAMSECSQHLAGNASASA [HC1697]"
  furin cleavage Z-score: "0.222 (inactive)"
